All figures here come from patent US20020155547A1.

Molecular target: T1, IFNAR2/Fc fusion protein (extracellular domain of the human IFNAR2 receptor chain fused to the hinge, CH2 and … (human, UniProt P48551 27-243))
T1 construct: extracellular domain; also called IFNAR2-ectodomain/Fc fusion protein; IFNAR/Fc; not shown: human IgG1 heavy chain constant region: hinge, CH2 and CH3 domains
T1 sequence (looked up): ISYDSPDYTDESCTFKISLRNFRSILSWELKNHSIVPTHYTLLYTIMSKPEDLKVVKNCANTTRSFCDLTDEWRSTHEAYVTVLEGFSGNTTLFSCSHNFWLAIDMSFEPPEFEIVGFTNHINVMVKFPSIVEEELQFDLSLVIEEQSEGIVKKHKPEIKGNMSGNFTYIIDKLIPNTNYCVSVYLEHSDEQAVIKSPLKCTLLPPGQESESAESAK
Test: ELISA on captured IFNAR2-Fc
Recorded endpoint: concentration tested relative to the w.t. his-IFN-beta EC50 (fold)
# unit: fold | format: bare number

-- ask Name the reported concentration tested relative to the w.t. his-IFN-beta EC50 value associated with the binder his tagged interferon-beta alanine substitution mutant AB2 (ligand, glycosylated at Asn 80 of the interferon-beta moiety) SGGHHHHHHSSGDDDDKMSYNLLGFLQRSSNFQCQKLLWQLNGRLEYCLKDRAAFAIPAEIKQLQQFQKEDAALTIYEMLQNIFAIFRQDSSSTGWNETIVENLLANVYHQINHLKTVLEEKLEKEDFTRGKLMSSLHLKRYYGRILHYLKAKEYSHCAWTIVRVEILRNFYFINRLTGYLRN
-- reply 500
